# STUDY_TARGET: human GLP-1R receptor (Homo sapiens, UniProt P43220, L260F)
# Sequence (P43220 24-463 L260F): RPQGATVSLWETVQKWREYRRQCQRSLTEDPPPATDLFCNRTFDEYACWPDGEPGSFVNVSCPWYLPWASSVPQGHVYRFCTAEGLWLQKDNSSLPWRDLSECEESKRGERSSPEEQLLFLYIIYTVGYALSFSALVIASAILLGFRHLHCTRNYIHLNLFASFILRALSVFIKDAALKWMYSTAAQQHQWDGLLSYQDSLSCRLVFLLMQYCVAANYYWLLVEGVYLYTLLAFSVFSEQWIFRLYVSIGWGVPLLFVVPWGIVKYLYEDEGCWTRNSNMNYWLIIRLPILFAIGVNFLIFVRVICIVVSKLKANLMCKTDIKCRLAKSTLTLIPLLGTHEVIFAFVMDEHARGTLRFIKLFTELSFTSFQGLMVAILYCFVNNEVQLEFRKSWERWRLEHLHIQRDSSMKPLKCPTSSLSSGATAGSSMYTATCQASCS
# MEASUREMENT_DESCRIPTION: CHOK1 GLP-1R cAMP Assay
# CONDITION_NOTES: CHO-K1 cell line stably expressing human GLP-1R; HTRF cAMP detection
pEC50: −log10 of the molar value.
ASSAY_READOUT: pEC50

Examples with their reported pEC50 follow.
C[C@]1(c2ccc(Cl)cc2F)Oc2cccc(N3CCN(Cc4nc5c(Cl)cc(C(=O)O)cc5n4C[C@@H]4CCO4)[C@H]4COC[C@H]43)c2O1 (single isomer, unassigned) [Example 15c] ... 6.82
C[C@]1(c2ccc(Cl)cc2F)Oc2cccc(N3CCN(Cc4nc5c(F)cc(C(=O)O)cc5n4Cc4cccnc4)[C@H]4COC[C@H]43)c2O1 (single isomer, unassigned) [Example 13b] ... 6.17

a. C[C@]1(c2ccc(Cl)cc2F)Oc2cccc(N3CCN(Cc4nc5ccc(C(=O)O)cc5n4C[C@@H]4CCO4)[C@H]4COC[C@H]43)c2O1 (single isomer, unassigned) [Example 6d]
b. C[C@]1(c2ccc(Cl)cn2)Oc2cccc(N3CCN(Cc4nc5c(F)cc(C(=O)O)cc5n4C[C@@H]4CCO4)[C@H]4COC[C@H]43)c2O1 (single isomer, unassigned) [Example 9b]
c. C[C@]1(c2ccc(Cl)cn2)Oc2cccc(N3CCN(Cc4nc5c(F)cc(C(=O)O)cc5n4C[C@@H]4CCCO4)[C@H]4COC[C@H]43)c2O1 (single isomer, unassigned) [Example 12a]
Query: Descending sort on pEC50 required. Reply with the item labels sorted in the order that was asked for.
Result: c, b, a

----------
# STUDY_TARGET: human GLP-1R receptor (Homo sapiens, UniProt P43220, L260F)
# MEASUREMENT_DESCRIPTION: CHOK1 GLP-1R cAMP Assay
# CONDITION_NOTES: CHO-K1 cell line stably expressing human GLP-1R; HTRF cAMP detection
ASSAY_READOUT: EC50 (nM)

Examples with their reported EC50 follow.
C[C@]1(c2ccc(Cl)cc2F)Oc2cccc(N3CCN(Cc4nc5ccc(C(=O)O)cc5n4C[C@@H]4CCO4)[C@H]4COC[C@H]43)c2O1 (single isomer, unassigned) [Example 6b] ... 54
C[C@]1(c2ccc(Cl)cc2F)Oc2cccc(N3CCN(Cc4nc5c(F)cc(C(=O)O)cc5n4Cc4cocn4)[C@H]4COC[C@H]43)c2O1 (single isomer, unassigned) [Example 20a] ... 150
COc1cc(C(=O)O)cc2c1nc(CN1CCN(c3cccc4c3O[C@@](C)(c3ccc(Cl)cc3F)O4)[C@@H]3COC[C@@H]31)n2C[C@@H]1CCO1 (single isomer, unassigned) [Example 3a] ... 1.2
C[C@]1(c2ccc(Cl)cn2)Oc2cccc(N3CCN(Cc4nc5ccc(C(=O)O)cc5n4C[C@@H]4CCO4)[C@H]4COC[C@H]43)c2O1 (single isomer, unassigned) [Example 5b] ... 2.2
C[C@]1(c2ccc(Cl)cn2)Oc2cccc(N3CCN(Cc4nc5c(F)cc(C(=O)O)cc5n4C[C@@H]4CCO4)[C@H]4COC[C@H]43)c2O1 (single isomer, unassigned) [Example 9a] ... 1.5

P. C[C@]1(c2ccc(Cl)cn2)Oc2cccc(N3CCN(Cc4nc5ccc(C(=O)O)cc5n4C[C@@H]4CCCO4)[C@H]4COC[C@H]43)c2O1 (single isomer, unassigned) [Example 8a]
Q. COc1cc(C(=O)O)cc2c1nc(CN1CCN(c3cccc4c3O[C@@](C)(c3ccc(Cl)cn3)O4)[C@@H]3COC[C@@H]31)n2C[C@@H]1CCCO1 (relative stereo) [Example 2a]
R. C[C@]1(c2ccc(Cl)cn2)Oc2cccc(N3CCN(Cc4nc5ccc(C(=O)O)cc5n4C[C@@H]4CCO4)[C@H]4COC[C@H]43)c2O1 (single isomer, unassigned) [Example 5c]
Query: Could you please order the items by EC50, going from the lowest number to the highest? Reply with the item labels sorted in the order that was asked for.
Result: Q, P, R
(Q: 3.8 nM, P: 15 nM, R: 100 nM)

----------
# STUDY_TARGET: endogenous human glucagon-like peptide 1 receptor (GLP-1R) (Homo sapiens, UniProt P43220)
# Construct: endogenous human glucagon-like peptide 1 receptor (GLP-1R) in a pancreatic insulinoma cell line
# Sequence (P43220 24-463): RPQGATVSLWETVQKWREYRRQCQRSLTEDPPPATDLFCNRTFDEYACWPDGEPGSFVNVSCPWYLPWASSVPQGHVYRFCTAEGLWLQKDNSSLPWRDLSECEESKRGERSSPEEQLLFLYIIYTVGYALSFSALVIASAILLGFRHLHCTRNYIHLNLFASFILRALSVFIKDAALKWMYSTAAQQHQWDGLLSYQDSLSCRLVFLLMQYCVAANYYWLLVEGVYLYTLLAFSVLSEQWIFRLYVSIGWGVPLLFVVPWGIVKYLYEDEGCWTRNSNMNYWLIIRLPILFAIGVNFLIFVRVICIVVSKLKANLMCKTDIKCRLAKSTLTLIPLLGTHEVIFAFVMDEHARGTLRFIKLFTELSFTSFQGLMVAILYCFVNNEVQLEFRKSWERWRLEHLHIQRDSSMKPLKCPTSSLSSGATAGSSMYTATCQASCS
# MEASUREMENT_DESCRIPTION: EndoC cAMP Accumulation Assay
# CONDITION_NOTES: EndoC-βH1 human pancreatic β cell line; HTRF cAMP assay
# Description: EndoC cAMP Accumulation Assay A HTRF (Homogeneous Time-Resolved Fluorescence) cAMP assay (cAMP Gs dynamic kit; CisoBio Cat #62AM4PEJ) was used to identify agonists of the endogenous human glucagon-like peptide 1 receptor (GLP-1R) in a pancreatic insulinoma cell line (EndoC-βH1). […] EndoC-βH1 cells have detectable GLP-1R mRNA as detected by qPCR^1. […] The detection kit is intended for the direct quantitative determination of cAMP. […]
pEC50: −log10 of the molar value.
ASSAY_READOUT: pEC50

Examples with their reported pEC50 follow.
C[C@]1(c2ccc(Cl)cc2F)Oc2cccc(N3CCN(Cc4nc5c(F)cc(C(=O)O)cc5n4Cc4cccnc4)[C@H]4COC[C@H]43)c2O1 (single isomer, unassigned) [Example 13a] ... 7.89
C[C@]1(c2ccc(Cl)cn2)Oc2cccc(N3CCN(Cc4nc5ccc(C(=O)O)cc5n4CCn4cccn4)[C@H]4COC[C@H]43)c2O1 (single isomer, unassigned) [Example 10] ... 7.12
C[C@]1(c2ccc(Cl)cc2F)Oc2cccc(N3CCN(Cc4nc5ccc(C(=O)O)cc5n4CCn4cccn4)[C@H]4COC[C@H]43)c2O1 (single isomer, unassigned) [Example 7a] ... 7.72
C[C@]1(c2ccc(Cl)cn2)Oc2cccc(N3CCN(Cc4nc5c(F)cc(C(=O)O)cc5n4C[C@@H]4CCO4)[C@H]4COC[C@H]43)c2O1 (single isomer, unassigned) [Example 9a] ... 8.41
Cc1nccn1CCn1c(CN2CCN(c3cccc4c3O[C@@](C)(c3ccc(Cl)cc3F)O4)[C@@H]3COC[C@@H]32)nc2c(F)cc(C(=O)O)cc21 (single isomer, unassigned) [Example 17] ... 8.35
C[C@]1(c2ccc(Cl)cn2)Oc2cccc(N3CCN(Cc4nc5c(F)cc(C(=O)O)cc5n4C[C@@H]4CCCO4)[C@H]4COC[C@H]43)c2O1 (single isomer, unassigned) [Example 12a] ... 8.12

a. COc1cc(C(=O)O)cc2c1nc(CN1CCN(c3cccc4c3O[C@@](C)(c3ccc(Cl)cn3)O4)[C@@H]3COC[C@@H]31)n2C[C@@H]1CCCO1 (relative stereo) [Example 2a]
b. C[C@]1(c2ccc(Cl)cn2)Oc2cccc(N3CCN(Cc4nc5ccc(C(=O)O)cc5n4CC4(CC#N)CC4)[C@H]4COC[C@H]43)c2O1 (single isomer, unassigned) [Example 25]
c. C[C@]1(c2ccc(Cl)cn2)Oc2cccc(N3CCN(Cc4nc5c(Cl)cc(C(=O)O)cc5n4CC4(C#N)CC4)[C@H]4COC[C@H]43)c2O1 (single isomer, unassigned) [Example 23a]
Query: Could you please order the items by pEC50, going from the lowest number to the highest? Reply with the item labels sorted in the order that was asked for.
Result: b, c, a
(b: 8.10, c: 8.30, a: 8.51)

A. COc1cc(C(=O)O)cc2c1nc(CN1CCN(c3cccc4c3O[C@@](C)(c3ccc(Cl)cn3)O4)[C@@H]3COC[C@@H]31)n2C[C@@H]1CCO1 (relative stereo) [Example 1b]
B. C[C@]1(c2ccc(Cl)cn2)Oc2cccc(N3CCN(Cc4nc5c(Cl)cc(C(=O)O)cc5n4C[C@@H]4CCO4)[C@H]4COC[C@H]43)c2O1 (single isomer, unassigned) [Example 14b]
Query: # return whichever of A and B has the smaller pEC50 Response format: the label of the selected entry.
Result: B

I. C[C@]1(c2ccc(Cl)cn2)Oc2cccc(N3CCN(Cc4nc5ccc(C(=O)O)cc5n4C[C@@H]4CCO4)[C@H]4COC[C@H]43)c2O1 (single isomer, unassigned) [Example 5c]
II. C[C@]1(c2ccc(Cl)cn2)Oc2cccc(N3CCN(Cc4nc5c(Cl)cc(C(=O)O)cc5n4C[C@@H]4CCO4)[C@H]4COC[C@H]43)c2O1 (single isomer, unassigned) [Example 14a]
III. C[C@]1(c2ccc(Cl)cn2)Oc2cccc(N3CCN(Cc4nc5c(F)cc(C(=O)O)cc5n4C[C@@H]4CCO4)[C@H]4COC[C@H]43)c2O1 (single isomer, unassigned) [Example 9d]
Query: Could you please order the items by pEC50, going from the lowest number to the highest? Reply with the item labels sorted in the order that was asked for.
Result: III, I, II
(III: 5.68, I: 6.21, II: 8.48)

P. COc1cc(C(=O)O)cc2c1nc(CN1CCN(c3cccc4c3O[C@@](C)(c3ccc(Cl)cn3)O4)[C@@H]3COC[C@@H]31)n2C[C@@H]1CCO1 (single isomer, unassigned) [Example 1a]
Q. C[C@@]1(c2ccc(Cl)cc2F)Oc2cccc(N3CCN(Cc4nc5c(F)cc(C(=O)O)cc5n4Cc4cccnc4)[C@@H]4COC[C@@H]43)c2O1 (relative stereo) [Example 13c]
Query: # return whichever of P and Q has the smaller pEC50 Response format: the label of the selected entry.
Result: Q

a. C[C@@]1(c2ccc(Cl)cc2F)Oc2cccc(N3CCN(Cc4nc5c(Cl)cc(C(=O)O)cc5n4C[C@@H]4CCO4)[C@@H]4COC[C@@H]43)c2O1 (relative stereo) [Example 15a]
b. C[C@]1(c2ccc(Cl)cn2)Oc2cccc(N3CCN(Cc4nc5c(Cl)cc(C(=O)O)cc5n4CCn4cccn4)[C@H]4COC[C@H]43)c2O1 (single isomer, unassigned) [Example 27]
c. C[C@]1(c2ccc(Cl)cc2F)Oc2cccc(N3CCN(Cc4nc5c(F)cc(C(=O)O)cc5n4Cc4cocn4)[C@H]4COC[C@H]43)c2O1 (single isomer, unassigned) [Example 20a]
Query: Descending sort on pEC50 required. Reply with the item labels sorted in the order that was asked for.
Result: a, b, c
(a: 8.72, b: 7.70, c: 6.39)
